OBSERVED_PROPERTY: Kd (nM)
Expressed in nM, but write only the number.

Q. Under carbonic anhydrase II (Bos taurus, UniProt P00921): Kd value of `CC(C)[C@@H](C(=O)NCc1cc(F)ccn1)n1cc(-c2ccc(S(N)(=O)=O)cc2)nn1` ?
A. 0.5

###

Target: bovine carbonic anhydrase II (Bos taurus)
Construct: Carbonic anhydrase II from bovine erythrocytes; purchased Sigma-Aldrich C2522; host or cells: bovine erythrocytes (natural source)
Sequence (P00921 whole entry): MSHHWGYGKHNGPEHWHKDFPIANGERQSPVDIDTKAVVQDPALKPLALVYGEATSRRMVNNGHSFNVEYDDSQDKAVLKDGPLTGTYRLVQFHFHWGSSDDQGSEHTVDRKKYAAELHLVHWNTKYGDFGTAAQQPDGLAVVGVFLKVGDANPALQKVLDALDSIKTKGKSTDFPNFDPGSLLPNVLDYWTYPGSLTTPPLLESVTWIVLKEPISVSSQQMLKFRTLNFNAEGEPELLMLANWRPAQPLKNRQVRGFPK
Assay: Titration of bovine carbonic anhydrase II with DNSA (fluorescence)
Format: binding
Settings: enzyme 200 nM in pH 7.4 phosphate buffer, titrated with DNSA; read-out: dissociation constant (Kd) of CA·DNSA
OBSERVED_PROPERTY: Kd (nM)
Number in nM, nothing else.

Q. Which measured Kd value corresponds to CN(C)c1cccc2c(S(N)(=O)=O)cccc12 [DNSA] ?
A. 393
